Assay: Solubility Determination Assay (PBS pH 1.6 and pH 7.4)
Format: physicochemical
Details: PBS buffer, aqueous buffer, kinetic from dmso stock; PBS pH 1.6, 25° C., 2 hours shaking; read-out: Aq. Solubility at pH = 1.6
For each entry below, report its solubility at 2 h value.

Exercise: Please indicate solubility at 2 h recorded for COc1ccccc1-c1ccc2nc(NC(=O)c3ccccn3)sc2n1
Key: 0.1 to 1 µM

Exercise: Find the measured solubility at 2 h of COc1ccccc1-c1ccc2nc(NC(=O)c3ccnn3C)sc2n1 and report it.
Key: ≥ 1 µM

Exercise: Given CN(C)c1ccccc1-c1ccc2nc(NC(=O)c3ccnn3C)sc2n1 , respond with its solubility at 2 h.
Key: ≥ 1 µM

Exercise: Determine its reported solubility at 2 h: Cc1ccccc1-c1ccc2nc(NC(=O)N3CCOCC3)sc2n1
Key: ≥ 1 µM

Exercise: Give the value of solubility at 2 h reported for the following: Cc1ccccc1-c1ccc2nc(NC(=O)c3ccnn3C)sc2n1
Key: 0.1 to 1 µM

----------
Test: Solubility Determination Assay (PBS pH 1.6 and pH 7.4)
Type: physicochemical
Settings: PBS buffer, aqueous buffer, kinetic from dmso stock; PBS pH 7.4, 25° C., 2 hours shaking; read-out: Aq. Solubility at pH = 7.4
Could you please report measured solubility at 2 h for the items listed next?

Exercise: Output measured solubility at 2 h for this item: COc1ccccc1-c1ccc2nc(NC(=O)c3ccccn3)sc2n1
Key: 0.1 to 1 µM

Exercise: Identify the reported solubility at 2 h for the following entry. Cc1ccccc1-c1ccc2nc(NC(=O)c3ccnn3C)sc2n1
Key: ≥ 1 µM

Exercise: Answer with the recorded solubility at 2 h of Cc1ccccc1-c1ccc2nc(NC(=O)c3ccccn3)sc2n1 only.
Key: < 0.1 µM

Exercise: For COc1ccccc1-c1ccc2nc(NC(=O)c3ccnn3C)sc2n1 , write its solubility at 2 h.
Key: ≥ 1 µM

Exercise: Return the recorded solubility at 2 h value; entry: Cn1ncnc1C(=O)Nc1cnc2cc(-c3cc(F)ccc3C(F)F)[nH]c2c1
Key: 0.1 to 1 µM

Exercise: Given the molecule CN(C)c1ccccc1-c1ccc2nc(NC(=O)c3ccnn3C)sc2n1 , write its reported solubility at 2 h.
Key: ≥ 1 µM

Exercise: Provide solubility at 2 h value for the following molecule: Cc1ccccc1-c1cc2ncc(NC(=O)c3ccnn3C)cc2[nH]1
Key: ≥ 1 µM

Exercise: Supply solubility at 2 h value. Item: Cc1ccccc1-c1ccc2nc(NC(=O)N3CCOCC3)sc2n1
Key: ≥ 1 µM

----------
Kindly state CLint scaled at 1 µM for each of the entries shown.
Assay: Hepatocyte Stability Assay, rat hepatocytes
Format: in vitro ADME
Conditions: cryopreserved rat hepatocytes, read-out: Rat hepatocyte clearance

Exercise: Tell me measured CLint scaled at 1 µM for Cc1ccccc1-c1ccc2nc(NC(=O)c3ccnn3C)sc2n1 please.
Key: > 50 mL/min/kg

Exercise: Supply CLint scaled at 1 µM value. Item: COc1ccccc1-c1ccc2nc(NC(=O)c3ccnn3C)sc2n1
Key: > 50 mL/min/kg

----------
Could you please report measured CLint scaled at 1 µM for the items listed next?
Assay: Hepatocyte Stability Assay, human hepatocytes
Assay type: in vitro ADME
Details: cryopreserved human hepatocytes, read-out: Human hepatocyte clearance

Exercise: Consider the molecule COc1ccccc1-c1ccc2nc(NC(=O)c3ccccn3)sc2n1 [Product 12] and give its recorded CLint scaled at 1 µM.
Key: 20 to 50 mL/min/kg

Exercise: Check the records and state CLint scaled at 1 µM for Cn1ncnc1C(=O)Nc1cnc2cc(-c3cc(F)ccc3C(F)F)[nH]c2c1 [Product 47]
Key: < 20 mL/min/kg

Exercise: Indicate its recorded CLint scaled at 1 µM; the molecule in question is Cc1ccccc1-c1ccc2nc(NC(=O)N3CCOCC3)sc2n1 [Product 39]
Key: < 20 mL/min/kg

Exercise: Give me measured CLint scaled at 1 µM, please, for this molecule: COc1ccccc1-c1ccc2nc(NC(=O)c3ccnn3C)sc2n1 [Product 25]
Key: < 20 mL/min/kg

Exercise: Using the record for CN(C)c1ccccc1-c1ccc2nc(NC(=O)c3ccnn3C)sc2n1 [Product 18] , state its measured CLint scaled at 1 µM.
Key: 20 to 50 mL/min/kg

Exercise: Quickly give me recorded CLint scaled at 1 µM for Cc1ccccc1-c1ccc2nc(NC(=O)c3ccnn3C)sc2n1 [Product 15]
Key: < 20 mL/min/kg

Exercise: Write down CLint scaled at 1 µM measured for item Cc1ccccc1-c1ccc2nc(NC(=O)c3ccccn3)sc2n1 [Product 8]
Key: 20 to 50 mL/min/kg
